Below is a list of entries, each paired with its recorded IC50 value.
# TGT: Axl (Homo sapiens, UniProt P30530)
# Construct: endogenous in cells; host or cells: HeLa cells
# Sequence (P30530 26-894): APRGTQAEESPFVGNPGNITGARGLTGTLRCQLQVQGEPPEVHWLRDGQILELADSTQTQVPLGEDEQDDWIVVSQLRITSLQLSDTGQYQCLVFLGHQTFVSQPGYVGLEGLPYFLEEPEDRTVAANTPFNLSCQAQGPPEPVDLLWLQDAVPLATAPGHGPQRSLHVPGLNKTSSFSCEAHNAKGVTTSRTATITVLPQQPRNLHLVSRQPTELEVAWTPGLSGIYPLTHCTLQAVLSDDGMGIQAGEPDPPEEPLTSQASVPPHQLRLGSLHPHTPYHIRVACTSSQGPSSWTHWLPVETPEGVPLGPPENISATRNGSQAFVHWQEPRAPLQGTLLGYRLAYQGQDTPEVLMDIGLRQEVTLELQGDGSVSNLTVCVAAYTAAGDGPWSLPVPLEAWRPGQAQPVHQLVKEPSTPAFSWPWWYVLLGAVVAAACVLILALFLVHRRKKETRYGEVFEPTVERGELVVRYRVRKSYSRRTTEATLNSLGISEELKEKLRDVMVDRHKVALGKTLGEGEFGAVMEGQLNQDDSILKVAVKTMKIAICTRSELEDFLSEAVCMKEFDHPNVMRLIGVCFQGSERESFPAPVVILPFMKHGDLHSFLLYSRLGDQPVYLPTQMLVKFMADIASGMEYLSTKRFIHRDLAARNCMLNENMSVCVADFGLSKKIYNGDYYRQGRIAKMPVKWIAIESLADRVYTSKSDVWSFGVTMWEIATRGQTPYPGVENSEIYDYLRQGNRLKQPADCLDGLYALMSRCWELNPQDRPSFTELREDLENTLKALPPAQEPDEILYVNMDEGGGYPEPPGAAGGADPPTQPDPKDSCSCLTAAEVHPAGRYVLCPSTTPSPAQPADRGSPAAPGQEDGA
# TEST METHOD NOTES: Phospho-Akt In-Cell Western Assay (inhibition of Axl activity after Axl-antibody cross-linking)
# Assay type: cell-based
# ASSAY CONTEXT: Hela cells, phospho-Akt chemiluminescence normalized to relative cell number; compounds of formula (Ib), Table 2; read-out: IC50

Incoming: // query IC50 value for entry CN1CCC2(CCN(c3ccc(Nc4nc(N)nn4-c4cc5c(nn4)-c4ccccc4CCC5)cc3F)C2)C1 (stereo not drawn) [Compound 169]
Outgoing: 1 to 10 µM

Incoming: // query IC50 value for entry CN1CCN(c2ccc(Nc3nc(N)nn3-c3cc4c(nn3)-c3ccccc3N(C)CC4)cc2)CC1 [Compound 162]
Outgoing: > 20 µM

Incoming: // query IC50 value for entry Nc1nc(Nc2ccc(N3CC(N4CCCC4)C3)c(F)c2)n(-c2cc3c(nn2)-c2ccccc2CCC3)n1 [Compound 170]
Outgoing: 1 to 10 µM
